Biological target: Estrogen receptor (Homo sapiens)
Experiment: OT_ERa_GFPERaERE_0480: Odyssey Thera (OT) 8-hour HeLa Transcription Induction Assay for Estrogen Receptor (AID 2283381)
Experimental: OT_ERa_GFPERaERE_0480 is a cell-based, single-readout assay that uses HeLa, a human cervix cell line, with measurements taken at 8 hours after chemical dosing in a 384-well plate.OT_ERa_GFPERaERE_0480 is one of one assay component(s) measured or calculated from the OT_ERa_GFPERaERE_0480 assay. […] This assay endpoint, OT_ERa_EREGFP_0480, was analyzed in the positive analysis fitting direction relative to DMSO as the negative control and baseline of activity. […]
Activity calls are given as the source filed them. How the source made its calls: active means hit-call score of the fitted dose curve at least 0.9, where 1 is the maximum; inactive means score below 0.9.
Would you mind answering with one of these outcomes? active, inactive

Record excerpt, results attached:
CCCCCCCCC=O :: inactive
CC1COc2ccccc2N1C(=O)C(Cl)Cl (stereo unspecified) :: inactive

(Q) Just curious, what result did `Cc1ccc(S)cc1` get here?
(A) inactive

(Q) And the next one, `CC(=O)OCCOC(C)=O` ?
(A) inactive

(Q) How about `CCCCCCCCC` ?
(A) inactive

(Q) Same thing, different molecule: `CC(C)(N)CO`
(A) inactive

(Q) Moving on to the next molecule: BrC1CCC(Br)C(Br)CCC(Br)C(Br)CCC1Br (stereo unspecified)
(A) inactive

* * *

assay: ATG_M_19_CIS: Attagene CIS-FACTORIAL HepG2 Assay for M19 Transcription Factor (Internal Marker) (AID 2282939); conditions: HepG2 Attagene CIS-FACTORIAL M19 internal marker reporter; actives raise or lower the signal
Activity calls are given as the source filed them. The calls were made as follows: active = hit-call score of the fitted dose curve at least 0.9, where 1 is the maximum; inactive = score below 0.9.
Pick one and only one: true (1) (active), false (0) (inactive)

Past entries and their recorded results:
C=CCOc1nc(OCC=C)nc(OCC=C)n1 :: false (0)
CC(C)(C)c1n[nH]c(=S)n(N)c1=O :: false (0)

(Q) For `CCN(CC)c1ccc2c(-c3ccccc3C(=O)O)c3ccc(=[N+](CC)CC)cc-3oc2c1` , which call appears in the assay record?
(A) false (0)

(Q) Further, for `O=C1NC(=O)c2ccccc21` ?
(A) false (0)

(Q) Follow-up entry: `CCCCOCCOCCSC#N`
(A) false (0)

(Q) For `CCCCCOC(=O)CCC` then?
(A) false (0)

(Q) Again, but for c1cc(C(c2ccc(OCC3CO3)cc2)c2ccc(OCC3CO3)cc2)ccc1OCC1CO1 (stereo not drawn)
(A) true (1)

(Q) Now the molecule `CCCCCCCCCCCCCCCC(=O)OC[C@H](O)[C@H]1OC(=O)C(O)=C1O`
(A) false (0)

* * *

Read-out: Urokinase-type plasminogen activator receptor (uPAR), PLAUR (gene 5329)
Assay: BSK_BE3C_uPAR: BioMAP Diversity Plus: BE3C Assay for Urokinase-type plasminogen activator receptor (uPAR) Biomarker Activity (AID 2283039)
Conditions: primary human bronchial epithelial cells; actives raise or lower the signal
Description: BSK_BE3C is a cell-based, multiplexed-readout assay that uses bronchial epithelial cell, a human lung primary cell, with measurements taken at 24 hours after chemical dosing in a 96-well plate.BSK_BE3CAR is an assay component measured in the BSK_BE3C assay. It measures uPAR antibody related to regulation of gene expression using ELISA technology.Data from the assay component BSK_BE3CAR was analyzed into 1 assay endpoint. […]
Activity calls are given as the source filed them. How the source made its calls: active means hit-call score of the fitted dose curve at least 0.9, where 1 is the maximum; inactive means score below 0.9.
Parameter measured: AC50

Record excerpt, results attached:
CC(C)c1ccc(C(C)C)cc1 :: 20 µM (active)
O=[N+]([O-])c1cc(C(F)(F)F)ccc1Cl :: inactive
C#C[C@]1(O)CC[C@H]2[C@@H]3CCC4=Cc5oncc5C[C@]4(C)[C@H]3CC[C@@]21C :: inactive
CC[Si](OC(C)=O)(OC(C)=O)OC(C)=O :: inactive
CC(C)Oc1ccccc1O :: inactive
O=C1CCCCCCCCCCCCCCO1 :: 20 µM (active)

Now consider a different compound.
(Q) # AC50 lookup, item `Cc1ccc2n[nH]nc2c1`
(A) inactive

* * *

Test: CEETOX_H295R_OHPROG: CeeTox H295R High-throughput Steroidogenesis Assay for OH-Progesterone (OHPROG) (AID 2283435)
Details: actives raise or lower the signal
Procedure: CEETOX_H295R is a cell-based, multiplexed-readout assay that uses H295R, a human adrenal gland cell line, with measurements taken at 48 hours after chemical dosing in a 96-well plate.CEETOX_H295R_OHPROG is one of 23 assay component(s) measured or calculated from the CEETOX_H295R assay. […] This assay endpoint, CEETOX_H295R_OHPROG, was analyzed with bidirectional fitting relative to DMSO as the negative control and baseline of activity. […]
The source made the active and inactive calls. The calls were made as follows: active = hit-call score of the fitted dose curve at least 0.9, where 1 is the maximum; inactive = score below 0.9.
Your reply should match one of these outcome classes. active, inactive

(Q) Can you look up the reported call for `C=CC(C)(C)O` for me?
(A) inactive

(Q) Can you handle `C=CCOc1nc(OCC=C)nc(OCC=C)n1` next?
(A) inactive

(Q) Please answer likewise for `O=C(O)c1ccc([N+](=O)[O-])cc1`
(A) inactive

(Q) Repeat with `Cc1ccc2n[nH]nc2c1`
(A) inactive

(Q) What do you have for `CC1(C)[C@H](C(=O)OCc2cccc(Oc3ccccc3)c2)[C@@H]1C=C(Cl)Cl` ?
(A) inactive

(Q) What do you get for `c1ccc(CCCc2ccccn2)cc1` ?
(A) inactive

(Q) // repeat for `O=c1cc(-c2ccccc2)oc2cc(O)cc(O)c12` and report
(A) active

(Q) Now the compound `C#C[C@]1(O)CC[C@H]2[C@@H]3CCC4=Cc5oncc5C[C@]4(C)[C@H]3CC[C@@]21C`
(A) active

(Q) And the next one, `CC(C)c1cccc(O)c1` ?
(A) active

* * *

assay: ATG_FoxO_CIS: Attagene CIS-FACTORIAL HepG2 Assay for human Forkhead box O (FoxO) (AID 2282943); conditions: HepG2 Attagene cis-reporter, FoxO element, mRNA; actives raise or lower the signal
Active and inactive are the calls of the source. The calls were made as follows: active = hit-call score of the fitted dose curve at least 0.9, where 1 is the maximum; inactive = score below 0.9.
Pick one: active, inactive

Here's what some known entries look like.
Cc1ccc(O)c(C(C)(C)C)c1 :: inactive
CC(C)(C)C(=O)c1ccccc1 :: inactive
CCC(=O)OCc1ccccc1 :: inactive
CCCCNC(=O)NS(=O)(=O)c1ccc(N)cc1 :: inactive
CC(C)c1cccc(O)c1 :: inactive

(Q) Give the logged outcome of this assay for the following compound: `CC(C)(C)c1n[nH]c(=S)n(N)c1=O`
(A) inactive

(Q) Moving on to `O=C1c2ccccc2C(=O)N1SC1CCCCC1`
(A) active

(Q) Follow-up entry: O=C(O)COCCN1CCN(C(c2ccccc2)c2ccc(Cl)cc2)CC1 (centres undefined)
(A) inactive

(Q) Moving on to `NC(N)=NC(=O)c1nc(Cl)c(N)nc1N`
(A) inactive

(Q) Quick one: COCCCOc1ccnc(CS(=O)c2nc3ccccc3[nH]2)c1C (centres undefined)
(A) inactive

(Q) CCC(C)(O)CCC=C(C)C (centres undefined) ?
(A) inactive

(Q) Now consider `CC(C)CCCCCCCOC(=O)c1ccc(C(=O)OCCCCCCCC(C)C)c(C(=O)OCCCCCCCC(C)C)c1` and answer again.
(A) inactive

(Q) Also need `CC(C)Oc1ccccc1O` , thanks.
(A) inactive

(Q) Then what about the compound `Clc1cccc(Cl)n1` ?
(A) inactive

* * *

read-out: Interleukin 2 (IL2), IL2 (gene 3558); test: BSK_BT_xIL2: BioMAP Diversity Plus: BT Assay for Interleukin 2 (IL2) Biomarker Activity (AID 2284245); details: primary human B cells with PBMC
Calls of active or inactive are those of the source. How the source made its calls: active means hit-call score of the fitted dose curve at least 0.9, where 1 is the maximum; inactive means score below 0.9.
Select the correct class. Options are class 1 (active), class 0 (inactive) and nothing else.

For orientation, consider the following solved cases.
c1ccc2c(c1)c1cccc3ccc4cccc2c4c31 :: class 0
COC(=O)c1ccc(C)cc1 :: class 0
CCn1c2ccccc2c2cc(N)ccc21 :: class 0
BrC1CCC(Br)C(Br)CCC(Br)C(Br)CCC1Br (configuration not stated) :: class 1
CC(=O)/C=C/C1=C(C)CCCC1(C)C :: class 0

(Q) Look up the recorded call for `Cc1ccc(Nc2ccc(O)c3c2C(=O)c2ccccc2C3=O)cc1` in this test.
(A) class 0

(Q) Let us now turn to CCCCC(CC)COCCC#N (configuration not stated)
(A) class 0

* * *

assay: ATG_PXRE_CIS: Attagene CIS-FACTORIAL HepG2 Assay for human Pregnane X Receptor Element (PXRE) (AID 2282957); details: HepG2 Attagene CIS-FACTORIAL PXRE reporter, mRNA; actives raise or lower the signal
The source made the active and inactive calls. The calls were made as follows: active = hit-call score of the fitted dose curve at least 0.9, where 1 is the maximum; inactive = score below 0.9.
I would appreciate it if you answered using one of these outcomes: active, inactive

Example entries begin here.
C=CCOC(=O)CCC1CCCCC1 :: inactive
O=C(Cl)c1cccc(C(=O)Cl)c1 :: active
CCCCC(CC)COCCC#N (configuration not stated) :: active
CC1CC(OC(=O)c2ccccc2O)CC(C)(C)C1 (configuration not stated) :: active
COc1ccc(Cl)cc1C :: inactive

(Q) Hey, what did the test say about `O=S(=O)(O)c1ccc(O)c2ncccc12` ?
(A) inactive

(Q) Here is the next compound: CCCCCCCCCCC(CO)CCCCCCCC (configuration not stated)
(A) inactive

(Q) CCCCCCCCCCCCCCCCCC(=O)OCC(CC)CCCC (configuration not stated) , same question.
(A) inactive

(Q) Entry `CSc1nc(NC2CC2)nc(NC(C)(C)C)n1` please
(A) active

(Q) Next compound up: `CCCCc1ccc(N)cc1`
(A) inactive

(Q) What about `CC(C)(C)c1n[nH]c(=S)n(N)c1=O` ?
(A) active

(Q) Queued: `CNC[C@H](O)c1cccc(O)c1`
(A) active

(Q) Repeat for the following compound: `CC(=O)OCC=Cc1ccccc1`
(A) active
